# ASSAY OVERVIEW: Clearance in CD1 mouse at 1 mg/kg, iv
# Type: ADME, organism-based
# Set-up: dose 1 mg/kg, route intravenous
# CONDITION DESCRIPTION: in vivo
MEASURE NAME: clearance (mL/min/kg)

CHEMICAL STRUCTURE: NCC(=O)N1C[C@H](NC(=O)c2ccccc2)C[C@H]1C(=O)NC1CC1
clearance, mL/min/kg: 20

[I] CC(=O)NCC(=O)N1C[C@H](NC(=O)c2ccccc2)C[C@H]1C(=O)O
[II] CC(C)NC(=O)[C@@H]1C[C@@H](NC(=O)c2ccccc2)CN1C(=O)CN
Out of I and II , name the one with the higher clearance. Lab log: write the label of the selected item as the result.
II
(II: 58 mL/min/kg, I: 24 mL/min/kg)
